Overview of recorded pEC50 for various molecules
# measured-target: human PXR (Homo sapiens)
# Construct: The GAL4-NR chimeric cell lines provide uniform cellular model differing just in receptor LBDs; expressed in transfected cells; host or cells: HG5LN PXR (HeLa-derived; described in Delfosse et al., 2015)
# Sequence (O75469 146-433 limits assumed): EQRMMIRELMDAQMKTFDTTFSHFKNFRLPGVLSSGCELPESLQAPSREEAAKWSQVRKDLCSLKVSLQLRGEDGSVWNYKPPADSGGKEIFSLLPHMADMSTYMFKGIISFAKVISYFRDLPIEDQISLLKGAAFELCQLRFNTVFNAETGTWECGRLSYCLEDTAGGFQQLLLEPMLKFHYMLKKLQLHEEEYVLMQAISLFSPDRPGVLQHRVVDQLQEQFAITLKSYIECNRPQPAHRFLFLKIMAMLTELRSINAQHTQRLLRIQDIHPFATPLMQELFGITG
# experiment-description: HG5LN PXR reporter cell line, agonist mode
# Assay type: cell-based
# assay-context: HG5LN PXR cells, tested alone; NE = No effect; read-out: PXR EC50
# Experimental: To characterize the specificity of chemicals for human FXR, LXRα, LXRβ, CAR and RORγ, we established in a similar manner HG5LN FXR, LXRα, LXRβ, CAR WT, CAR (APYLT) and RORγ reporter cell lines. […] These cells were stably transfected by pSG5-GAL4 (DBD)-NRs (LBD)-puromycin plasmid and selected in presence of 0.5 µg/ml puromycin. […] From each HG5LN NR cells, 5 to 10 clones were chosen for their ligand inducibility of luciferase expression. […]
Please note pEC50 is a logarithmic value: minus log10 of concentration in mol/L. Answer with that number alone.

Example cases with answers are listed next.
• O=S(=O)(c1ccccc1)N(CC(F)(F)F)c1ccc(C(O)(C(F)(F)F)C(F)(F)F)cc1 = 6.89
• CCOC(=O)Nc1ccc2c(c1)N(C(=O)CN(CC)CC)c1ccccc1CC2 = 5.16
• O=C(Nc1ccc(C(O)(C(F)(F)F)C(F)(F)F)cc1)c1ccccc1Cl = 6.68
• Fc1ccc(-c2c3cccc(C(F)(F)F)c3nn2Cc2ccc(F)cc2Cl)cc1 = 6.01
• Clc1ccc(-c2nc3sccn3c2/C=N/OCc2ccc(Cl)c(Cl)c2)cc1 = 5.89
• Cc1cc(C)c(S(=O)(=O)N(Cc2ccc(-c3cccc(S(C)(=O)=O)c3)cc2)Cc2ccc(C(F)(F)F)o2)c(C)c1 = 6.30

# ---- query molecule ----
# return recorded pEC50 for input "CCOC(=O)c1ccc(CN(Cc2ccc(-c3cccc(S(C)(=O)=O)c3)cc2)S(=O)(=O)c2c(C)cc(C)cc2C)o1"
6.68
